Provide the reported Ratio IC50 of each item.
# Species: Homo sapiens
# testMethodNotes: Selectivity index, ratio of IC50 for N-terminal FLAG-tagged full-length human PI3K p110beta/human p85alpha to IC50 for recombinant N-terminal His-tagged full-length human PI3K p120gamma

What does the record list as Ratio IC50 for CC(=O)Nc1nc2ccc(-c3cc(C)c4c(c3)CN([C@@H](C)C3CC3)C4=O)cn2n1 (racemic) ?
> 131

What does the record list as Ratio IC50 for CC(=O)Nc1cn2nc(-c3cc(C)c4c(c3)CN([C@@H](C)C3CC3)C4=O)ccc2n1 ?
> 1820

What does the record list as Ratio IC50 for Cc1cc(-c2ccc3nc(N)cn3n2)cc2c1C(=O)N([C@@H](C)C1CC1)C2 (racemic) ?
> 24

What does the record list as Ratio IC50 for Cc1cc(-c2ccc3nc(N)nn3c2)cc2c1C(=O)N([C@@H](C)C1CC1)C2 (racemic) ?
> 34

What does the record list as Ratio IC50 for Cc1cc(-c2ccn3nc(N)nc3c2)cc2c1C(=O)N([C@@H](C)C1CC1)C2 ?
> 200

What does the record list as Ratio IC50 for CC(C)c1cc(-c2cnn3ccc(-c4cc5c(c(C(F)(F)F)c4)C(=O)N([C@@H](C)C4CC4)C5)nc23)ccc1C(=O)O ?
5520

What does the record list as Ratio IC50 for CC(=O)Nc1nc2cc(-c3cc(C)c4c(c3)CN([C@@H](C)C3CC3)C4=O)ccc2[nH]1 (racemic) ?
> 21

What does the record list as Ratio IC50 for CC(C)c1cc(-c2c(N)nn3ccc(-c4cc5c(c(C(F)(F)F)c4)C(=O)N([C@@H](C)C4CC4)C5)nc23)ccc1C(=O)O ?
10100
